# Papp listing for each entry below
# run_conditions: mdck_mdr1

molecule: CC(C)[C@H](CO)Nc1ncnc2[nH]ccc12
Papp (×10⁻⁶ cm/s): 13.1
//
molecule: CC(C)[C@H](Nc1ncnc2[nH]c(-c3cnn(C)c3C#N)cc12)c1ccc2c(c1)S(=O)(=O)CCC2 (racemic)
Papp (×10⁻⁶ cm/s): 1.97
//
molecule: COc1cc(Cc2c(-c3ccc(F)cc3)noc2C)nc(N2CCNCC2)n1
Papp (×10⁻⁶ cm/s): 4.78
//
molecule: CC(C)c1nc2c(C(=O)Nc3cccc(CN)c3)cccc2[nH]1
Papp (×10⁻⁶ cm/s): 3.84
//
molecule: COc1ccc([C@H](NC(=O)c2ncnc3[nH]ccc23)C(C)c2nnn[nH]2)cc1 (mixture of isomers)
Papp (×10⁻⁶ cm/s): 1.13
//
molecule: CNC(=O)c1cc(Cl)ccc1NS(=O)(=O)c1ccc(Oc2ccccc2Cl)cc1
Papp (×10⁻⁶ cm/s): 4.91
//
molecule: Cc1ccc(NC(=O)c2cc(Cl)cc(NC(=O)OCc3ccccc3)c2)cc1CN
Papp (×10⁻⁶ cm/s): 0.0873
//
molecule: CC(C)[C@H](Nc1ncnc2[nH]c(-c3cnn(C)c3C#N)cc12)c1ccc2c(c1)OCCO2
Papp (×10⁻⁶ cm/s): 5.56
//
molecule: Cc1c(C(=O)Nc2cc(-c3cccnc3)ccn2)cc(C2CC2)n1C
Papp (×10⁻⁶ cm/s): 13.5
//
molecule: COc1ccc2c(c1)CCN(c1ncnc3[nH]ccc13)[C@H]2C(C)C (racemic)
Papp (×10⁻⁶ cm/s): 7
//
molecule: O=C(O)c1cc(Cl)ccc1NS(=O)(=O)c1ccc(Oc2ccccc2Cl)cc1
Papp (×10⁻⁶ cm/s): 4.01
//
molecule: c1ccc2c(CN3CCC(c4c[nH]c5cccnc45)CC3)c[nH]c2c1
Papp (×10⁻⁶ cm/s): 4.6
//
molecule: O=C(NCC(F)F)[C@H](Nc1ccc2c(c1)CNC2)c1cc(Cl)cc2ccoc12 (racemic)
Papp (×10⁻⁶ cm/s): 2.1
//
molecule: CC(C)[C@H](Nc1ncnc2[nH]c(-c3cnn(CC(N)=O)c3)cc12)c1ccc2c(c1)OCCO2 (racemic)
Papp (×10⁻⁶ cm/s): 0.9
//
molecule: CC(C)CNC(=O)c1cc(Cl)c(F)cc1NS(=O)(=O)c1ccc(Oc2ccccc2Cl)cc1
Papp (×10⁻⁶ cm/s): 2.39
//
molecule: NCc1cccc(NC(=O)[C@H](NC(=O)OCc2ccccc2)C2CCCCC2)c1 (racemic)
Papp (×10⁻⁶ cm/s): 1.58
//
molecule: O=C(Nc1ccc2c(c1)CNC2)c1cc(F)cc2[nH]ncc12
Papp (×10⁻⁶ cm/s): 1.59
//
molecule: CC(C)(C)[C@H](Nc1ncnc2[nH]c(-c3cnn(CC(N)=O)c3)cc12)c1ccc2c(n1)OCCO2 (racemic)
Papp (×10⁻⁶ cm/s): 0.822
//
molecule: O=C(NCC(F)F)[C@H](Nc1ccc2c(c1)CNC2)c1cc(Cl)cc2c1CCC2 (racemic)
Papp (×10⁻⁶ cm/s): 0.9
//
molecule: CCCCNC(=O)[C@H](Nc1ccc2c(c1)CNC2)c1cc(Cl)cc(C2CC2)c1 (racemic)
Papp (×10⁻⁶ cm/s): 0.7
//
molecule: CNC(=O)c1cc2c(N[C@H](c3ccc4c(c3)NC(=O)CO4)C(C)C)ncnc2[nH]1 (single isomer, unassigned)
Papp (×10⁻⁶ cm/s): 1.21
//
molecule: O=C(Nc1cc2c(c(-c3c[nH]c(=O)c(F)c3)c1)CNC2)c1cc(F)cc2[nH]ncc12
Papp (×10⁻⁶ cm/s): 0.651

The origin of these recorded values is the ASAP Discovery antiviral challenge data (2025).
